# tgt: RAR gamma (Homo sapiens)
# Sequence (P13631 185-419 limits assumed): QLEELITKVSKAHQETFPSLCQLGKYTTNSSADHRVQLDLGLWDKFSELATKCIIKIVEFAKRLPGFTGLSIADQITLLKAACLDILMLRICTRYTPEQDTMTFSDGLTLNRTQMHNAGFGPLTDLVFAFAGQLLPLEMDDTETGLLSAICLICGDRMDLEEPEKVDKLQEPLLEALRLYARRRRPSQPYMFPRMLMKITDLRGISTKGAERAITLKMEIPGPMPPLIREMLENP
# assay-overview: Transactivation test (luciferase reporter, stably transfected HeLa cells), RAR gamma
# measurement-parameters: at the reference agonist concentration that gives 80% activation
pIC50: −log10 of the molar value.
quantity-name: pIC50

Cc1ccc(C2=CCC(C)(C)c3cc([Se]C#Cc4ccc(C(=O)O)cc4)ccc32)cc1 | 8.30

I = Cc1ccc(C2=CCC(C)(C)c3cc([Se]C#Cc4ccc(C(=O)O)c(F)c4)ccc32)cc1
II = CN(C)c1ccc(C2=CCC(C)(C)c3cc(C(O)C#Cc4ccc(C(=O)O)cc4)ccc32)cc1 (stereo not drawn)
Q. Field: lower recorded pIC50 (choose I or II ) Answer format: the label of the selected item.
A. II

Reference source for all entries: patent US7592478B2
